Target: T1, 4H3628-bA
T1 chain: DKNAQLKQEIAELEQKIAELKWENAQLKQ
Experiment: two-hybrid library CCNG1;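 also: natural log of median RNA to DNA barcode read ratio; higher means stronger binding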
Use -0.4 as the dividing line for interaction score, with the line itself on the true (1) side and lower values as false (0).

A selection of reference data follows.
>  <binder>
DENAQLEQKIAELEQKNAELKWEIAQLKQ [4H1338-bA]

>  <discrete_label>
false (0)

$$$$
>  <binder>
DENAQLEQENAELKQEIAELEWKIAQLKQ [4H1222-bA]

>  <discrete_label>
true (1)

$$$$
>  <binder>
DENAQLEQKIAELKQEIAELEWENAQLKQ [4H1348-bA]

>  <discrete_label>
true (1)

$$$$
>  <binder>
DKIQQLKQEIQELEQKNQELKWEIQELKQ [4H2618-bN]

>  <discrete_label>
true (1)

$$$$
>  <binder>
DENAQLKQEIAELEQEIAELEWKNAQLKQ [4H1544-bA]

>  <discrete_label>
true (1)

$$$$

Record DKNAQLEQKNAELEQEIAELEWKIAQLKQ [4H3462-bA] ; criterion: interaction score no lower than -0.4. Met? false (0)

Record DKNAQLEQEIAELKQKIAELEWKNAQLEQ [4H3175-bA] ; criterion: interaction score no lower than -0.4. Met? false (0)
